# SUBJECT OF TEST: NLRP3 (Homo sapiens (Human), UniProt Q96P20)
# Sequence (Q96P20 whole entry): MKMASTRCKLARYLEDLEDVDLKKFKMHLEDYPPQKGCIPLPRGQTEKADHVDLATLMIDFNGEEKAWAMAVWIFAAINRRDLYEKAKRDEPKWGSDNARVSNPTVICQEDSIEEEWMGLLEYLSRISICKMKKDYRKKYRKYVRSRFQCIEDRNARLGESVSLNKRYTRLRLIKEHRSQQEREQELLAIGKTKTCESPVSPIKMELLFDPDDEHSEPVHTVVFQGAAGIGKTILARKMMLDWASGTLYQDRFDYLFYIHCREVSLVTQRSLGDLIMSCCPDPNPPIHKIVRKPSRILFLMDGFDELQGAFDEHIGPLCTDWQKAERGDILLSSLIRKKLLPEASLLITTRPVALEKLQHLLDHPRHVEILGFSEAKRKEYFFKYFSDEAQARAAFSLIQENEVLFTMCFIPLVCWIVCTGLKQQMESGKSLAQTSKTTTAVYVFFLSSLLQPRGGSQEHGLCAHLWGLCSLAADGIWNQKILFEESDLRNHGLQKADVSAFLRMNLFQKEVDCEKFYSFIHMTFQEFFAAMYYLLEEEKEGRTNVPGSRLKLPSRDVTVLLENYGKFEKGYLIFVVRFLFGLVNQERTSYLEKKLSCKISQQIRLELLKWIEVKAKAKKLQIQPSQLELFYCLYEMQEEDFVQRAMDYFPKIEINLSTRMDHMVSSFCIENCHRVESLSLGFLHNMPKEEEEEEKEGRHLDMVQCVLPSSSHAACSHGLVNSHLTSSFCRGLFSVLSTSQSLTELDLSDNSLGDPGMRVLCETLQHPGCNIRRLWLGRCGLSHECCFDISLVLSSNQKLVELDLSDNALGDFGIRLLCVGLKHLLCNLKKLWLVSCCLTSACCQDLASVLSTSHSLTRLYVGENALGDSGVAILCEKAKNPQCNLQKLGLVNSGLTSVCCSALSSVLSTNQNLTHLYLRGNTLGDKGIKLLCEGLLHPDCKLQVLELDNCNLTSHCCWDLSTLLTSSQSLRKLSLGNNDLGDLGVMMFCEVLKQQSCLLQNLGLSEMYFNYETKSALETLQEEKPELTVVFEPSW
# ASSAY COMMENT: THP-1 cells pyroptosis assay (LPS priming, nigericin, resazurin readout)
# DETAILS: 1.0 μg/ml LPS, nigericin 5 μM, NLRP3 inhibitory activity
Counter-ions that a name gives are not always drawn.
Please provide measured IC50 for the entries that follow.

Request: Test system NLRP3 (Homo sapiens (Human), UniProt Q96P20); read-out IC50; what value for COC1(c2cc(S(=O)(=O)NC(=O)Cc3c(C(C)C)cc(F)cc3C(C)C)nn2C(C)C)COC1 ?
Response: 1 to 5 µM

Request: Test system NLRP3 (Homo sapiens (Human), UniProt Q96P20); read-out IC50; what value for COc1cc(-c2ccc3c(c2CC(=O)NS(=O)(=O)c2cnn(C4CC4)n2)CCC3)ccn1 ?
Response: 5 to 10 µM

Request: Test system NLRP3 (Homo sapiens (Human), UniProt Q96P20); read-out IC50; what value for N#Cc1cc(-c2ccc3c(c2CC(=O)NS(=O)(=O)c2cnn(C4CC4)n2)CCC3)ccn1 ?
Response: 1 to 5 µM

Request: Test system NLRP3 (Homo sapiens (Human), UniProt Q96P20); read-out IC50; what value for COc1cc(-c2cc(F)cc(C(C)C)c2CC(=O)NS(=O)(=O)c2cnn(C3CC3)c2)ccn1 [Example 18, potassium salt] ?
Response: ≤ 1 µM

Request: Test system NLRP3 (Homo sapiens (Human), UniProt Q96P20); read-out IC50; what value for CC(C)c1cc(F)cc(-c2ccnc(C#N)c2)c1CC(=O)NS(=O)(=O)c1cn(C2CC2)cn1 ?
Response: 5 to 10 µM

Request: Test system NLRP3 (Homo sapiens (Human), UniProt Q96P20); read-out IC50; what value for COc1cc(-c2cc(F)cc(C(C)C)c2C(O)C(=O)NS(=O)(=O)c2cnn(C3CC3)c2)ccn1 (stereo not shown) ?
Response: 5 to 10 µM

Request: Test system NLRP3 (Homo sapiens (Human), UniProt Q96P20); read-out IC50; what value for COC1(c2cc(S(=O)(=O)NC(=O)Cc3c(-c4ccnc(C#N)c4)ccc4c3CCC4)nn2C(C)C)COC1 [Example 13, potassium salt] ?
Response: 5 to 10 µM

---

# ASSAY COMMENT: PK protocol, intravenous administration in rats
# Type: in vivo
# DETAILS: rat, plasma, male Sprague Dawley rats, 1 mg/kg
Where a name gives a salt, the structure may show the parent alone.
MEASURED PARAMETER: half-life (h)
Give a bare numeral; the unit h is implied.

Request: Entry CC(C)c1cc(F)cc(C(C)C)c1CC(=O)NS(=O)(=O)c1cnn(C2CC2)c1 [Example 24] has what half-life?
Response: 2.6

Request: Entry COc1cc(-c2cc(F)cc(C(C)C)c2CC(=O)NS(=O)(=O)c2cnn(C3CC3)c2)ccn1 [Example 18, potassium salt] has what half-life?
Response: 16.4

Request: Entry CC(C)c1cc(F)cc(-c2cccnc2)c1CC(=O)NS(=O)(=O)c1cnn(C2CC2)c1 [Example 11] has what half-life?
Response: 4.4

Request: Entry COc1cc(-c2cc(F)cc(C(C)C)c2CC(=O)NS(=O)(=O)c2ncn(C3CC3)n2)ccn1 [Example 21] has what half-life?
Response: 9.3

---

# ASSAY COMMENT: PK protocol, intravenous administration in rats
# Type: in vivo
# DETAILS: rat, plasma, male Sprague Dawley rats, 1 mg/kg
Counter-ions that a name gives are not always drawn.
MEASURED PARAMETER: AUC (ng·h/mL)
Give a bare numeral; the unit ng·h/mL is implied.

Request: Entry COc1cc(-c2cc(F)cc(C(C)C)c2CC(=O)NS(=O)(=O)c2ncn(C3CC3)n2)ccn1 [Example 21] has what AUC?
Response: 827

Request: Entry CC(C)c1cc(F)cc(C(C)C)c1CC(=O)NS(=O)(=O)c1cnn(C2CC2)c1 [Example 24] has what AUC?
Response: 1270

Request: Entry COc1cc(-c2cc(F)cc(C(C)C)c2CC(=O)NS(=O)(=O)c2cnn(C3CC3)c2)ccn1 [Example 18, potassium salt] has what AUC?
Response: 1550

Request: Entry CC(C)c1cc(F)cc(-c2cccnc2)c1CC(=O)NS(=O)(=O)c1cnn(C2CC2)c1 [Example 11] has what AUC?
Response: 1560

---

Please provide measured Vd for the entries that follow.
# ASSAY COMMENT: PK protocol, intravenous administration in rats
# Format: in vivo
# DETAILS: rat, plasma, male Sprague Dawley rats, 1 mg/kg, read-out: Vdss
Where a name gives a salt, the structure may show the parent alone.
Give a bare numeral; the unit L/kg is implied.

Request: Entry COc1cc(-c2cc(F)cc(C(C)C)c2CC(=O)NS(=O)(=O)c2ncn(C3CC3)n2)ccn1 [Example 21] has what Vd?
Response: 6.15

Request: Entry CC(C)c1cc(F)cc(C(C)C)c1CC(=O)NS(=O)(=O)c1cnn(C2CC2)c1 [Example 24] has what Vd?
Response: 1.94

Request: Entry CC(C)c1cc(F)cc(-c2cccnc2)c1CC(=O)NS(=O)(=O)c1cnn(C2CC2)c1 [Example 11] has what Vd?
Response: 0.95

Request: Entry COc1cc(-c2cc(F)cc(C(C)C)c2CC(=O)NS(=O)(=O)c2cnn(C3CC3)c2)ccn1 [Example 18, potassium salt] has what Vd?
Response: 6.52

---

# ASSAY COMMENT: PK protocol, intravenous administration in rats
# Format: in vivo
# DETAILS: rat, plasma, male Sprague Dawley rats, 1 mg/kg
Counter-ions that a name gives are not always drawn.
Please provide measured clearance for the entries that follow.
Give a bare numeral; the unit mL/min/kg is implied.

Request: Entry COc1cc(-c2cc(F)cc(C(C)C)c2CC(=O)NS(=O)(=O)c2ncn(C3CC3)n2)ccn1 has what clearance?
Response: 20.2

Request: Entry CC(C)c1cc(F)cc(-c2cccnc2)c1CC(=O)NS(=O)(=O)c1cnn(C2CC2)c1 has what clearance?
Response: 10.7

Request: Entry COc1cc(-c2cc(F)cc(C(C)C)c2CC(=O)NS(=O)(=O)c2cnn(C3CC3)c2)ccn1 [Example 18, potassium salt] has what clearance?
Response: 15.4

Request: Entry CC(C)c1cc(F)cc(C(C)C)c1CC(=O)NS(=O)(=O)c1cnn(C2CC2)c1 has what clearance?
Response: 13.1

---

Please provide measured pIC50 for the entries that follow.
# SUBJECT OF TEST: NLRP3 (Homo sapiens (Human), UniProt Q96P20)
# ASSAY COMMENT: THP-1 cells pyroptosis assay (LPS priming, nigericin, resazurin readout)
# DETAILS: 1.0 μg/ml LPS, nigericin 5 μM, NLRP3 inhibitory activity
pIC50: −log10 of the molar value. Structures can show the parent of a compound that is named as a salt.

Request: Entry CC(C)c1cc(F)cc(C(C)C)c1CC(=O)NS(=O)(=O)c1ncn(C2CC2)n1 has what pIC50?
Response: 5.00 to 5.30

Request: Entry CC(C)c1cc(F)cc(C(C)C)c1CC(=O)NS(=O)(=O)c1cc(CN(C)C)n(C2CC2)n1 has what pIC50?
Response: 5.30 to 6.00

Request: Entry CC(C)c1cc(F)cc(C(C)C)c1CC(=O)NS(=O)(=O)c1cnn(C2CC2)n1 has what pIC50?
Response: 5.30 to 6.00

Request: Entry CC(C)c1cc(F)cc(C(C)C)c1CC(=O)NS(=O)(=O)c1cn(C2CC2)cn1 has what pIC50?
Response: 5.30 to 6.00

Request: Entry COc1cc(-c2ccc3c(c2CC(=O)NS(=O)(=O)c2ccn(C4CC4)n2)CCC3)ccn1 has what pIC50?
Response: 5.30 to 6.00

Request: Entry COc1cc(-c2ccc3c(c2CC(=O)NS(=O)(=O)c2cnn(C4CC4)c2)CCC3)ccn1 has what pIC50?
Response: 5.30 to 6.00

Request: Entry COC1(c2cc(S(=O)(=O)NC(=O)Cc3c4c(cc5c3CCC5)CCC4)nn2C(C)C)COC1 has what pIC50?
Response: 5.30 to 6.00

Request: Entry CC(C)c1cc(F)cc(C(C)C)c1CC(=O)NS(=O)(=O)c1cnn(C2CC2)c1 has what pIC50?
Response: 5.30 to 6.00

Request: Entry CC(C)c1cc(F)cc(-c2ccnc(C#N)c2)c1CC(=O)NS(=O)(=O)c1cnn(C2CC2)n1 has what pIC50?
Response: 5.00 to 5.30

Request: Entry N#Cc1cc(-c2ccc3c(c2CC(=O)NS(=O)(=O)c2cnn(C4CC4)c2)CCC3)ccn1 has what pIC50?
Response: 5.00 to 5.30

Request: Entry COc1cc(-c2cc(F)cc(C(C)C)c2CC(=O)NS(=O)(=O)c2cnn(C3CC3)n2)ccn1 has what pIC50?
Response: 5.30 to 6.00

Request: Entry CC(C)c1cc(F)cc(-c2ccnc(C#N)c2)c1CC(=O)NS(=O)(=O)c1cnn(C2CC2)c1 has what pIC50?
Response: 5.00 to 5.30

Request: Entry COc1cc(-c2cc(F)cc(C(C)C)c2CC(=O)NS(=O)(=O)c2ccn(C3CC3)n2)ccn1 has what pIC50?
Response: 5.30 to 6.00

Request: Entry CC(C)c1cc(F)cc(-c2cccnc2)c1CC(=O)NS(=O)(=O)c1cn(C2CC2)cn1 has what pIC50?
Response: 5.00 to 5.30

Request: Entry CC(C)c1cc(F)cc(-c2cccnc2)c1CC(=O)NS(=O)(=O)c1ncn(C2CC2)n1 has what pIC50?
Response: 5.30 to 6.00

Request: Entry CC(c1cc(S(=O)(=O)NC(=O)Cc2c3c(cc4c2CCC4)CCC3)nn1C1CC1)N(C)C (stereo not drawn) has what pIC50?
Response: 5.30 to 6.00

Request: Entry CC(C)c1cc(F)cc(-c2cccnc2)c1CC(=O)NS(=O)(=O)c1cnn(C2CC2)c1 has what pIC50?
Response: 5.30 to 6.00

Request: Entry COc1cc(-c2cc(F)cc(C(C)C)c2CC(=O)NS(=O)(=O)c2ncn(C3CC3)n2)ccn1 has what pIC50?
Response: 5.30 to 6.00

Request: Entry N#Cc1cc(-c2ccc3c(c2CC(=O)NS(=O)(=O)c2ccn(C4CC4)n2)CCC3)ccn1 has what pIC50?
Response: 5.30 to 6.00

Request: Entry CC(C)c1cc(F)cc(-c2cccnc2)c1CC(=O)NS(=O)(=O)c1cnn(C2CC2)n1 has what pIC50?
Response: 5.30 to 6.00

Request: Entry O=C(Cc1c2c(cc3c1CCC3)CCC2)NS(=O)(=O)c1ccn(C2CC2)n1 has what pIC50?
Response: 5.00 to 5.30

Request: Entry COC1(c2cc(S(=O)(=O)NC(=O)Cc3c4c(cc5c3CCC5)CCC4)nn2C2CC2)COC1 has what pIC50?
Response: 5.30 to 6.00

Request: Entry CC(C)c1cc(F)cc(-c2ccncc2)c1CC(=O)NS(=O)(=O)c1ccn(C2CC2)n1 [Example 2, potassium salt] has what pIC50?
Response: ≥ 6.00

Request: Entry COc1cc(-c2cc(F)cc(C(C)C)c2CC(=O)NS(=O)(=O)c2cn(C3CC3)cn2)ccn1 has what pIC50?
Response: 5.30 to 6.00
